Origin of the recorded values: patent US10004732B2

TARGET ENTITY: UniProt P42338
Sequence (P42338 whole entry): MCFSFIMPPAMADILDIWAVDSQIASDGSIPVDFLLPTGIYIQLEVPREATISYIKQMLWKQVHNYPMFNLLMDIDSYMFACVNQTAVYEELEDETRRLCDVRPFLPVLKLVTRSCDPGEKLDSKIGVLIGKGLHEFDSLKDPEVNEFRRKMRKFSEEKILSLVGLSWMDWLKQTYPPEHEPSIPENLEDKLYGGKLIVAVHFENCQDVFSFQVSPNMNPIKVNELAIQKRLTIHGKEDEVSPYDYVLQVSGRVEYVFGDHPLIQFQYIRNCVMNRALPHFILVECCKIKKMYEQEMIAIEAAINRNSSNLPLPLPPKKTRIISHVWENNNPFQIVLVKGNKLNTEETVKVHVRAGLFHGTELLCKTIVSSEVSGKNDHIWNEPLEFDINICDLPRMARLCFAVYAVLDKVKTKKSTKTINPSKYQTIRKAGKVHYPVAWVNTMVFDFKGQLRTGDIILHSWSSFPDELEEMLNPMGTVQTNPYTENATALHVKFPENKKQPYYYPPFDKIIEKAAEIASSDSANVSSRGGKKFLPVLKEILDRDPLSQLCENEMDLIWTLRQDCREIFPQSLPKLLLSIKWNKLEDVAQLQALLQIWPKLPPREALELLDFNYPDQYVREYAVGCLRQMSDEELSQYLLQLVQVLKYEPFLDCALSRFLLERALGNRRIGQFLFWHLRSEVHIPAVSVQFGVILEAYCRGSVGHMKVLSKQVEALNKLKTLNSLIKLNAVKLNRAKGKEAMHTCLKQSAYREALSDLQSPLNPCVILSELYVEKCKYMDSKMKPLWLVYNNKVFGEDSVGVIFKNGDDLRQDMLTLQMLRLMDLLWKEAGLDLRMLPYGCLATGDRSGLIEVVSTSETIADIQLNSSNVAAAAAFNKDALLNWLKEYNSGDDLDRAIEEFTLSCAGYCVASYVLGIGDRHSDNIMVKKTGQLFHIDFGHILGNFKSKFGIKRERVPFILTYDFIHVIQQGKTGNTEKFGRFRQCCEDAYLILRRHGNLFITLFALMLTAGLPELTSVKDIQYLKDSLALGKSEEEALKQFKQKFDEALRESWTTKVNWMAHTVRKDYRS
Sequence (P27986 461-568 partner): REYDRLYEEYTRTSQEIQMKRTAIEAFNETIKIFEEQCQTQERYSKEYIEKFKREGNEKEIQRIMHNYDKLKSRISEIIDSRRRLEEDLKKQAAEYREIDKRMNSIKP
ASSAY TEXT: Kinase Glo Luminescent Kinase Assay (Kglo), assay B
Format: biochemical
ASSAY CONTEXT: read-out: Assay B PI3Kβ IC50
Where a name gives a salt, the structure may show the parent alone.
# if measured IC50 < 5 µM: Criterion met  # else: Criterion not met

Criterion: IC50 strictly below 5 µM. Is it met by Cc1ccc(S(=O)(=O)NCC2(CO)CCCCC2)cc1-c1cnc(N)c(-n2cncn2)n1 ?
Criterion met

Could you please tell me whether IC50 recorded for Cc1ncc(-c2nc(-c3cc(S(=O)(=O)NCC(C)(C)CO)ccc3C)cnc2N)s1 is less than 5 µM?
Criterion met

Does the reported IC50 of Cc1ncc(-c2nc(-c3cc(S(=O)(=O)NC4CCOCC4)ccc3C)cnc2N)s1 stay below 5 µM?
Criterion met

Item Cc1cncc(-c2nc(-c3cc(S(=O)(=O)NCCC(C)(C)O)ccc3C)cnc2N)c1 : IC50 beneath 5 µM, strictly?
Criterion not met

Report whether reported IC50 is lower than 5 µM (strictly) for Cc1cc(-c2nc(-c3cc(S(=O)(=O)NC4CC(F)(F)C4)ccc3C)cnc2N)ccn1
Criterion met

Strictly below 5 µM in IC50? Cc1cc(-c2nc(-c3cc(S(=O)(=O)NCC4(O)COC4)ccc3C)cnc2N)ccn1
Criterion not met

Answer whether the compound Cc1ncc(-c2nc(-c3cc(S(=O)(=O)N[C@H]4C[C@@H](O)C4)ccc3C)cnc2N)s1 [Example 43a] has IC50 strictly less than 5 µM
Criterion met

hey, is IC50 for Cc1ccc(S(=O)(=O)N[C@H]2C[C@@H](O)C2)cc1-c1cnc(N)c(-n2cncn2)n1 [Example 71b] lower than 5 µM or not?
Criterion met

Strictly below 5 µM: is that where IC50 of Cc1cc(-c2nc(-c3cc(S(=O)(=O)NCC4(O)CCCCC4)ccc3C)cnc2N)ccn1 sits?
Criterion not met

Determine whether this compound shows IC50 lower than 5 µM (ties excluded): Cc1cc(C)n(-c2nc(-c3cc(S(=O)(=O)NCC(C)(C)O)ccc3C)cnc2N)n1
Criterion not met

Given the entry Cc1ccc(S(=O)(=O)NCC2CN(C)CCO2)cc1-c1cnc(N)c(-c2cn(C)nc2C)n1 (stereo not shown) , would its reported IC50 be below 5 µM?
Criterion not met

Criterion: IC50 strictly below 5 µM. Is it met by Cc1cc(-c2nc(-c3cc(S(=O)(=O)NC[C@@H](C)O)ccc3C)cnc2N)ccn1 [Example 129, trifluoroacetic acid salt] ?
Criterion not met

is_below(IC50, 5 µM) for Cc1cn(-c2nc(-c3cc(S(=O)(=O)N[C@H]4CC[C@H](O)CC4)ccc3C)cnc2N)cn1 ?
Criterion met

Take the compound Cc1ccc(S(=O)(=O)NC[C@](C)(O)C(F)(F)F)cc1-c1cnc(N)c(-n2cncn2)n1 and say whether its IC50 is less than 5 µM.
Criterion met

Does Cc1ccc(S(=O)(=O)N2CCC(F)CC2)cc1-c1cnc(N)c(-n2cncn2)n1 have IC50 strictly under 5 µM?
Criterion not met

====

TARGET ENTITY: mTOR (Homo sapiens)
ASSAY TEXT: Lanthascreen kinase binding assay, assay G
ASSAY CONTEXT: read-out: Assay G mTOR IC50
pIC50: −log10 of the molar value.
MEASURED ATTRIBUTE: pIC50

The measured pIC50 associated with Cc1ccc(S(=O)(=O)NCCC(C)(C)O)cc1-c1cnc(N)c(-c2ccc(F)nc2)n1 reads < 5.04

Lab note: measured pIC50 of Cc1ccc(S(=O)(=O)NCC2(CO)CCC2)cc1-c1cnc(N)c(-n2cncn2)n1 was 5.15

What the record says about Cc1ccc(S(=O)(=O)NCCC(C)(C)O)cc1-c1cnc(N)c(-c2cc[nH]n2)n1 : pIC50 is < 5.04

Briefly, pIC50 measured for Cc1ccc(S(=O)(=O)NCCC(C)(C)O)cc1-c1cnc(N)c(-c2cccnc2)n1 : < 5.04
